The following sequences are shown together with reported binding activity, ERα and buffer values.
study system: ERα (Homo sapiens, UniProt P03372)
Sequence (P03372 1-595): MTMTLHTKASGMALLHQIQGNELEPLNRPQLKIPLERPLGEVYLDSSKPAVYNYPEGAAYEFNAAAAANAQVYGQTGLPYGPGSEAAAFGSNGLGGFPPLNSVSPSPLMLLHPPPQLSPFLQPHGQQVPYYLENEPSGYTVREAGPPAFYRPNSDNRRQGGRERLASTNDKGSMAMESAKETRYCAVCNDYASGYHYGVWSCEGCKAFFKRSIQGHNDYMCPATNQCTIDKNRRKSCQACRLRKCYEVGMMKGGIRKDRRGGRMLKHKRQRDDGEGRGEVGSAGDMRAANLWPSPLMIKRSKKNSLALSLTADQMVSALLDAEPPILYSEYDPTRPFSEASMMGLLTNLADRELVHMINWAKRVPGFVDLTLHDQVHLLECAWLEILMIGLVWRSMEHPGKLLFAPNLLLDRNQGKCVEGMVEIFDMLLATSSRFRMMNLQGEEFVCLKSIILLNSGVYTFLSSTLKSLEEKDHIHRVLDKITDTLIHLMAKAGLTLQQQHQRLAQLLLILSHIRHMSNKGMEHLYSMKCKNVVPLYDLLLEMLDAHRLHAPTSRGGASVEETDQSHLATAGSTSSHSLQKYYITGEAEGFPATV
assay protocol: Phage ELISA / fingerprint on ER immobilized on biotinylated ERE (Examples 2.3-2.5)
Type: binding
Set-up: purchased PanVera Corporation, Madison, WI; key: semiquantitative scale of 0 to 7+; 1+: semiquantitative scale of 0 to 7+; 2+: semiquantitative scale of 0 to 7+; 3+: semiquantitative scale of 0 to 7+; 4+: semiquantitative scale of 0 to 7+; 5+: semiquantitative scale of 0 to 7+; 6+: semiquantitative scale of 0 to 7+; semiquantitative scale of 0 to 7+
measurement context: ERα and buffer

Entry under test: SRLEDLLRGDSKPQSR [Peptide 7E-β] . Its binding activity, ERα and buffer was 4+

Documented binding activity, ERα and buffer of SSVASREWWVRELSR [Peptide 15t-β] : 3+

Measured binding activity, ERα and buffer of SSGPWLMHYLGGGSR [Peptide 7b-β] : 2+

----------
study system: estrogen receptor α (ERα) (Homo sapiens, UniProt P03372)
Construct: The full length estrogen receptor was subcloned in frame into the EcoRI and XhoI sites of pJG4-5; expressed in transfected cells; host or cells: Saccharomyces cerevisiae EGY48
Sequence (P03372 1-595): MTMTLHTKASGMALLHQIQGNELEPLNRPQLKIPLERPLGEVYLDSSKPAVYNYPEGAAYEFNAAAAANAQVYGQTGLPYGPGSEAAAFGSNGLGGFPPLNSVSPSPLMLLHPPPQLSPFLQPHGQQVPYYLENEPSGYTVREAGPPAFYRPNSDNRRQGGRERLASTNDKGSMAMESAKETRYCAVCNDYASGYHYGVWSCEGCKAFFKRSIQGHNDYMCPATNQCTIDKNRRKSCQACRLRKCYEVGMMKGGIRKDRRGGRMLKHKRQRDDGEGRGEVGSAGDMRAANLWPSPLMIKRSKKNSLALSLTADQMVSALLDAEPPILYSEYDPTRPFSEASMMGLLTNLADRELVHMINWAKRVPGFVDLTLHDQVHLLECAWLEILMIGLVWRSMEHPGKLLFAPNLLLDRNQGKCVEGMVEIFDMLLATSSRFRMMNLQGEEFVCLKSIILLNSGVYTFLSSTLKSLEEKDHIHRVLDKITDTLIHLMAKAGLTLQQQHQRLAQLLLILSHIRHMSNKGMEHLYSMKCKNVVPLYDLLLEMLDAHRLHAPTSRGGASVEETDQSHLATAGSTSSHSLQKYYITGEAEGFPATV
assay protocol: LexA yeast two hybrid, β-galactosidase activity assay (Example 3)
Format: cell-based
measurement context: Estradiol
readout name: Peptide Interactions with ER Alpha, beta-galactosidase units, value (MOD/min/mg)

Examples with answers:
SSLTSRDFGSWYASR [α II] ... 30983
SSWDMHQFFWEGVSR [α/β III] ... 605

P: SSPGSREWFKDMLSR [α/β V]
Q: GHEPLTLLERLLMDDKQAV [Peptide F6]
Could you point out whether the larger Peptide Interactions with ER Alpha, beta-galactosidase units, value belongs to P or to Q ? Field: selected label. Fill in the label of the entry you choose.
Q

----------
study system: ERβ (Homo sapiens)
Sequence (Q92731 whole entry): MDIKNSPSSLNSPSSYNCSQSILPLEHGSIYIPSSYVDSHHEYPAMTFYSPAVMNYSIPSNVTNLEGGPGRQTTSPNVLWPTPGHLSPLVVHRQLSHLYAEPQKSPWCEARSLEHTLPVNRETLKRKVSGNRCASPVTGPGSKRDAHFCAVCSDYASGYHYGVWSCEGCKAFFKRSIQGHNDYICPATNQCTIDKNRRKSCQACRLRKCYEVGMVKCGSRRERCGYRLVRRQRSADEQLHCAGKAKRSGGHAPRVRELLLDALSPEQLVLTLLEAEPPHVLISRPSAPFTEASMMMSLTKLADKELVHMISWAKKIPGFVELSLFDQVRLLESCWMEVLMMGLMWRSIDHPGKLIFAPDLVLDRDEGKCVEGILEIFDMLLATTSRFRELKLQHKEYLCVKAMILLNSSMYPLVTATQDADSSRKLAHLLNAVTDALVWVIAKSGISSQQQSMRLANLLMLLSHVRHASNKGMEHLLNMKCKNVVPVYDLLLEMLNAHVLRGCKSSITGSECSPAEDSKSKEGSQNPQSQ
assay protocol: Phage ELISA / fingerprint on ER immobilized on biotinylated ERE (Examples 2.3-2.5)
Format: binding
Set-up: purchased PanVera Corporation, Madison, WI; key: semiquantitative scale of 0 to 7+; 1+: semiquantitative scale of 0 to 7+; 2+: semiquantitative scale of 0 to 7+; 3+: semiquantitative scale of 0 to 7+; 4+: semiquantitative scale of 0 to 7+; 5+: semiquantitative scale of 0 to 7+; 6+: semiquantitative scale of 0 to 7+; semiquantitative scale of 0 to 7+
measurement context: ERβ and Estradiol (1 µM)
readout name: binding activity, ERβ and Estradiol

SRLHCLLDSSYCSSR [Peptide 1b-β] ... 7+
SSDLYSQMREFFQINLSR [Peptide 23t-β] ... 6+
SSGLPPNFERMLKSR [Peptide 6b-β] ... 2+
SSDLHRDCLGVWCLSR [Peptide 17t-β] ... 7+

Next sequence, please.
Per the records, this sequence ( SSLKCLLNSNFCSR [Peptide 18E-β] ) has binding activity, ERβ and Estradiol equal to 7+

----------
study system: ERα (Homo sapiens, UniProt P03372)
Sequence (P03372 1-595): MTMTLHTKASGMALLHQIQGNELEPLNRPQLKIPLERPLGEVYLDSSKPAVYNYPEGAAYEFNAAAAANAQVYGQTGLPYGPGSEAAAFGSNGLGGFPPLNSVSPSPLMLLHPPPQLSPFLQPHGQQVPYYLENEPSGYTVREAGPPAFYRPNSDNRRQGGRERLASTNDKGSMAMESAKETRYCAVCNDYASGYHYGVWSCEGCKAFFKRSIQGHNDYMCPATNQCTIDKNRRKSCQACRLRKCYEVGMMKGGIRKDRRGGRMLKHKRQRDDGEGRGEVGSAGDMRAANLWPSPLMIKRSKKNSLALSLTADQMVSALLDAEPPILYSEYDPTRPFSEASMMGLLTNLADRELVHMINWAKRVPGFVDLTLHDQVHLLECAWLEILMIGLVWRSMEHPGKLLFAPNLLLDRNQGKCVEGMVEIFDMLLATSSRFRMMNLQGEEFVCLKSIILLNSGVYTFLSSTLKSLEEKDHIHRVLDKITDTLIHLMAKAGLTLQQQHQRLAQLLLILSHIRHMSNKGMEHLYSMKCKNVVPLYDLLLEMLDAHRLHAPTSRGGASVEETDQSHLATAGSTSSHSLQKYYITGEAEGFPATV
assay protocol: Phage ELISA / fingerprint on ER immobilized on biotinylated ERE (Examples 2.3-2.5)
Format: binding
Design: purchased PanVera Corporation, Madison, WI; key: semiquantitative scale of 0 to 7+; 1+: semiquantitative scale of 0 to 7+; 2+: semiquantitative scale of 0 to 7+; 3+: semiquantitative scale of 0 to 7+; 4+: semiquantitative scale of 0 to 7+; 5+: semiquantitative scale of 0 to 7+; 6+: semiquantitative scale of 0 to 7+; semiquantitative scale of 0 to 7+
measurement context: ERα and tamoxifen (4-OH tamoxifen, 1 µM)
readout name: binding activity, ERα and tamoxifen

Some sequences with known binding activity, ERα and tamoxifen results, for comparison:
SSYEIPKWALQWLSR [Peptide 34E-β] ... 4+
SRPEGSSWLLHYLSR [Peptide 24E-β] ... 4+

Noted for SRNECIGPWCLTISR [Peptide 13t-β] : its binding activity, ERα and tamoxifen reads 4+

Reported binding activity, ERα and tamoxifen of SSLKCLLNSNFCSR [Peptide 18E-β] : 5+

For record SSQVWPGPWRLVESR [Peptide 14b-β] the listed binding activity, ERα and tamoxifen is 3+

// recorded binding activity, ERα and tamoxifen for SSVFTIMDGKVALSR [Peptide 1t-β] : 7+

Item: SYSKEWFEERLNSR [Peptide 4b-β] | binding activity, ERα and tamoxifen: 3+

binding activity, ERα and tamoxifen for SRSPILWHLLQDGSR [Peptide 10E-β] is 4+

Briefly, binding activity, ERα and tamoxifen measured for SSRTLLEHYLLGGSR [Peptide 20E-β] : 4+

----------
study system: estrogen receptor α (ERα) (Homo sapiens, UniProt P03372)
Construct: The full length estrogen receptor was subcloned in frame into the EcoRI and XhoI sites of pJG4-5; expressed in transfected cells; host or cells: Saccharomyces cerevisiae EGY48
Sequence (P03372 1-595): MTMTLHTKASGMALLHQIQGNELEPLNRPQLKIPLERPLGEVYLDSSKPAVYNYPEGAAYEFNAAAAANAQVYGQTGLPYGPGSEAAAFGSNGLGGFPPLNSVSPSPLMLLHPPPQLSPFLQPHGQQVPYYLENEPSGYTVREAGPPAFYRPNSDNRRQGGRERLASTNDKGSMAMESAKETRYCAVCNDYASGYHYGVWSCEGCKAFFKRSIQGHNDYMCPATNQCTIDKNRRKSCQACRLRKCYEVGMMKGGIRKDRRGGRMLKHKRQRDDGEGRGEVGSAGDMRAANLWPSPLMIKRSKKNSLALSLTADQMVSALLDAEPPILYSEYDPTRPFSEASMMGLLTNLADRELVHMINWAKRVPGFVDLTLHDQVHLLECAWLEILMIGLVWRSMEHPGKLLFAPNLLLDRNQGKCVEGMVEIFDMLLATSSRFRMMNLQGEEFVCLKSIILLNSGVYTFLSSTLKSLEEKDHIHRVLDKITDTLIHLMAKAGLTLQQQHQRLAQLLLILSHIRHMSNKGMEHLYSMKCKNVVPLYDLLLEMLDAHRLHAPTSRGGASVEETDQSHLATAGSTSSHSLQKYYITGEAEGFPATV
assay protocol: LexA yeast two hybrid, β-galactosidase activity assay (Example 3)
Format: cell-based
measurement context: 4-hydroxy Tamoxifen
readout name: Peptide Interactions with ER Alpha, beta-galactosidase units, value (MOD/min/mg)

SSPGSREWFKDMLSR [α/β V] ... 4128
SSLTSRDFGSWYASR [α II] ... 20100

1: SSWDMHQFFWEGVSR [α/β III]
2: GHEPLTLLERLLMDDKQAV [Peptide F6]
Which has the higher Peptide Interactions with ER Alpha, beta-galactosidase units, value, 1 or 2 ? Write down the label of the entry you select.
2
(2: 20267 MOD/min/mg, 1: 3194 MOD/min/mg)
